Measured composite z-score by item
- Test system: Lefty1
- test.description: Lefty1 binders on small-molecule microarrays, primary screen, biochemical, small-molecule microarray, 635/667 nm fluorescence (AID 1139)
- experimental.conditions: small-molecule microarray binding, fluorescence 635/667; higher = more signal
quantity.measured: composite z-score

C=CCC(OC(C)=O)[C@@H]1[C@@H](N(Cc2ccc(-c3ccccc3)cc2)C(=O)c2ccc(-c3ccccc3)cc2)c2cc(OCCCO)ccc2N1C(=O)c1ccc(-c2ccccc2)cc1 (some centres undefined); -0.418
CCOC(=O)C[C@H]1[C@H](OC(=O)c2ccc(-c3ccccc3)cc2)[C@@H](NC(=O)c2ccccc2)c2cc(OCCCO)ccc2N1C(=O)c1ccccc1; -0.0764
NCCCCCNC(=O)[C@H]1C[C@H]2C(=O)NCC(=O)N2[C@H]1c1ccc(O)cc1; 1.69
C=CC[C@]1(C(=O)N2CCCCC2)COC(c2ccc(OCCCO)cc2)=N1; -0.45
CC(C)(C)OC(=O)CC[C@]1(C(=O)NCc2ccccc2)COC(c2ccc(OCCCO)cc2)=N1; -0.986
C=CCC(OC(C)=O)[C@@H]1[C@@H](N(Cc2cccc3ccccc23)C(=O)c2cccc3ccccc23)c2cc(OCCCO)ccc2N1C(=O)Cc1ccc(OC)cc1 (some centres undefined); 0.306
CN(C)CCCC[C@@H]1NC(=O)[C@@H]2C[C@H](C(=O)NCCCCCNC(=O)CS)[C@H](c3cccc(OCCO)c3)N2C1=O; 1.45
O=C(NC1CC1)[C@@H]1c2ccccc2C(=O)N(Cc2ccccc2C(F)(F)F)[C@H]1c1ccc(CO)cc1; 0.159
O=C1O[C@H](c2ccccc2)[C@H](c2ccccc2)N2[C@H]1[C@@H](C(=O)Nc1nc3ccccc3s1)[C@]1(C(=O)Nc3ccc(C#CCCO)cc31)[C@H]2c1ccccc1OCCO; 0.287
C=CC[C@@H](OC(=O)Nc1ccc(SC)cc1)c1ccc(OCCO)cc1; -0.763
COc1ccc([Si](C)(C)[C@H]2[C@H](CC(=O)N(CCO)Cc3ccccc3)O[C@@]3(C(=O)N(Cc4ccc(N5CCOC5=O)cc4)c4ccccc43)[C@@H]2C)cc1; 1.13
O=C(NCc1ccccc1)[C@@H]1c2ccccc2C(=O)N(Cc2ccccc2Cl)[C@H]1c1ccc(CO)cc1; 0.817
CC(C)(C)OC(=O)CC[C@@]12N=C(c3ccc(OCCCO)cc3)O[C@@H]1c1ccccc1CN(Cc1ccccc1)C2=O; 0.377
CC(C)C[C@@H]1NC(=O)[C@@]23C(=O)N[C@@H](Cc4ccccc4)C2[C@H](C)[C@@]2(C)O[C@H]2C3/C=C/C/C=C\CNC(=O)[C@H](Cc2ccccc2)NC1=O (some centres undefined); 0.321

====

- test.description: small-molecule microarray binders of probe aCHRDL2, primary screen, biochemical, biotinylated probe, 635/667 nm fluorescence (AID 1100)
- experimental.conditions: higher = more signal
Classify on composite z-score using low = under -0.2, moderate = from -0.2 up to 0.6, high = 0.6 and over

COc1ccc(/C=C/C(=O)c2cccc(OCC(=O)OC(C)(C)C)c2)cc1; moderate
COCCCNC(=O)[C@@]1(C)c2ccccc2C(=O)N(Cc2cc(F)cc(C(F)(F)F)c2)[C@H]1c1ccc(CO)cc1; high
C=CCN1C(=O)[C@@]2(O[C@@H](CCn3cc(CCO)nn3)[C@H]([Si](C)(C)c3ccc(OC)cc3)[C@H]2C)c2cc(N3C(=O)c4cccc5cccc3c45)ccc21; low
COc1ccc([Si](C)(C)[C@H]2[C@H](CC(=O)N(CCO)Cc3ccccc3)O[C@@]3(C(=O)N(Cc4ccc(N5CCOC5=O)cc4)c4ccccc43)[C@@H]2C)cc1; moderate
C=CCC1(CC=C)C[C@H]2CO[C@H](c3ccc(OC)cc3)N2C1=O; moderate
CC(=O)NCCCC[C@@H]1NC(=O)[C@@H]2C[C@H](C(=O)O)[C@H](c3cccc(OCCO)c3)N2C1=O; low
O=c1n(-c2ccccc2)c(=O)n2n1CC(COc1ccccc1)=C1[C@@H](CCc3ccccc3)OB(O)C[C@@H]12; low
COc1ccc([Si](C)(C)[C@@H]2[C@@H](CCn3cc([C@H](O)c4ccccc4)nn3)O[C@]3(C(=O)N(C)c4c(Br)cc(C)cc43)[C@H]2C)cc1; high
[N-]=[N+]=Nc1ccccc1[C@H]1OC(c2ccc(OCCCO)cc2)=N[C@@]1(Cc1ccccc1)C(N)=O; high
C=CCC(OC(C)=O)[C@@H]1[C@@H](N(Cc2cc3ccccc3o2)C(=O)c2ccc(-c3ccccc3)cc2)c2cc(OCCCO)ccc2N1C(=O)c1ccc(-c2ccccc2)cc1 (some centres undefined); high
CCCCCN1CC=CC23O[C@@H]4/C=C\CCC(C)OC(=O)C4[C@H]2C(=O)N(CCCO)[C@@H]3C1=O (some centres undefined); moderate
CC(C)C[C@@H]1NC(=O)[C@H]2C[C@@H](C(=O)NCCCC[N+](C)(C)C)[C@@H](c3cccc(OCCO)c3)N2C1=O; low
C[C@@H](OCc1ccccc1)C1NC(=O)[C@@]23C(=O)N[C@@H](Cc4ccccc4)C2[C@H](C)[C@@]2(C)O[C@H]2C3/C=C/C/C=C\CNC(=O)[C@@H]2CCCN2C1=O (some centres undefined); low
CO[C@H]1O[C@H](CO)[C@@H](OC(=O)Nc2ccccc2)[C@H](OC(=O)Nc2ccc3c(c2)OCO3)[C@H]1OC(=O)Nc1ccc2c(c1)OCO2; high

====

- system.tested: Left-right determination factor 2 (Homo sapiens) (UniProt O00292)
- Sequence (O00292 whole entry, looked up): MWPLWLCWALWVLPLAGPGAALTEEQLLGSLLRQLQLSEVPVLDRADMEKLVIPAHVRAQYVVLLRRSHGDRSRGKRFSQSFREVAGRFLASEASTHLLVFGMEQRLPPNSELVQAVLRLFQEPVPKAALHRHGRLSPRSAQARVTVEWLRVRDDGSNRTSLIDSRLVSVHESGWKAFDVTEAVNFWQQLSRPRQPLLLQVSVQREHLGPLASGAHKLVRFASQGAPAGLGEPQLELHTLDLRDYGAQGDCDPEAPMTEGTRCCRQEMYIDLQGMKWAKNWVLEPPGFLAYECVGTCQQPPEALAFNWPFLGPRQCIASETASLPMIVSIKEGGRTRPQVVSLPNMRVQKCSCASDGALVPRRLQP
- test.description: LEFTY2 binders on small-molecule microarrays, primary screen, biochemical, small-molecule microarray, 635 nm fluorescence scan (AID 1110)
- experimental.conditions: LEFTY2 binding, higher = more signal
quantity.measured: composite z-score

O=C1O[C@@H](c2ccccc2)[C@@H](c2ccccc2)N2[C@@H](c3ccc(OCCO)cc3)[C@]3(C(=O)Nc4ccc(C#CC5(O)CCCCCC5)cc43)[C@@H](C(=O)NC[C@H](O)c3ccccc3)[C@H]12; 0.497
C=C(COC)/C(=C/C[C@H](OC(C)=O)c1ccc(CO)o1)c1cnc2ccccc2c1; 0.149
NC(=O)NCC#Cc1ccc2c(c1)[C@]1(C(=O)N2)[C@H](c2ccc(OCCO)cc2)N2[C@H](c3ccccc3)[C@H](c3ccccc3)OC(=O)[C@H]2[C@@H]1C(=O)Nc1nc2ccccc2s1; -0.64

====

- test.description: small-molecule microarray binders of probe aDKK1, primary screen, biochemical, biotinylated probe, 635/667 nm fluorescence (AID 1099);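 note: score merges 667nm spot fluorescence with signal to noise across triplicate slides; reference of the scale not given here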
- experimental.conditions: higher = more signal
Measured composite z-score by item
quantity.measured: composite z-score

COCCOC(=O)N1C(=O)[C@@]2(c3cc(C#CCNC(N)=O)ccc31)[C@H](c1ccccc1OCCO)N1[C@H](c3ccccc3)[C@H](c3ccccc3)OC(=O)[C@H]1[C@@H]2C(=O)Nc1nc2ccccc2s1; 0.868
CC(C)[Si](C#C[Si](C(C)C)(C(C)C)C(C)C)(O[C@H](C)c1cn([C@H](C)c2ccccc2)nn1)C(C)C; 0.106
CCCCCN1CC=CC23O[C@@H]4/C=C\CCC(C)OC(=O)C4[C@H]2C(=O)N(CCO)[C@@H]3C1=O (stereo not given in full); -0.205
CO[C@H]1O[C@H](CO)[C@@H](OC(=O)CCc2ccccc2)[C@@H]2OC(=O)[C@H](Cc3ccccc3)C/C=C/C[C@@H](Cc3ccccc3)C(=O)O[C@@H]12; -0.332
CC(=O)OC(C/C=C\B1OC(C)(C)C(C)(C)O1)c1ccccc1 (stereo not given); -0.264
C=CCN1C(=O)[C@@]2(O[C@@H](CCn3cc(CCO)nn3)[C@H]([Si](C)(C)c3ccc(OC)cc3)[C@H]2C)c2cc(NC(=O)c3ccc(OC)cc3)ccc21; 0.0251
CC(C)(C)OC(=O)CC[C@]1(C(=O)NCc2ccccc2)COC(c2ccc(OCCCO)cc2)=N1; 1.07
C=CCC1(CC=C)C[C@H]2CO[C@H](c3ccc(OC)cc3)N2C1=O; -0.17
C=C(COC)C(=O)CC[C@H](OC(=O)c1ccccc1-c1ccccc1C(=O)O)c1ccccc1OCCO; -0.227
C=C(COC)/C(=C/C[C@H](OC(C)=O)c1ccc(CO)o1)c1cnc2ccccc2c1; 0.0967
C=CCOC(=O)[C@H]1[C@@H]2C(=O)O[C@@H](c3ccccc3)[C@@H](c3ccccc3)N2[C@@H](c2ccc(OCCOC(=O)[C@H]3C[C@H]4C(=O)N5CCC[C@H]5C(=O)N4[C@H]3c3cccc(OCCO)c3)cc2)[C@]12C(=O)Nc1ccccc12; -0.125
C=CCC(OC(C)=O)[C@@H]1[C@@H](N(Cc2cc3ccccc3o2)C(=O)c2ccc(-c3ccccc3)cc2)c2cc(OCCCO)ccc2N1C(=O)c1ccc(-c2ccccc2)cc1 (stereo not given in full); 0.232
CC(C)[C@@H](C(=O)O)n1cc(-c2ccccn2)nn1; 0.98
COc1ccc(C(=O)Nc2cccc(CN3C(=O)[C@@]4(O[C@@H](CCO)[C@H]([Si](C)(C)c5ccc(OC)cc5)[C@H]4C)c4ccccc43)c2)cc1; 0.481
CCCCCCC#C[Si](O[C@H](c1ccccc1)c1cn(Cc2ccccc2)nn1)(C(C)C)C(C)C; -0.0783

Origin of measurements: PubChem BioAssay
